# System: SNB-19 CNS
# Test Details: NCI tumour cell line growth inhibition, 48 h
Reported Metric: TGI

Record excerpt, results attached:
> print(dat)
                                   compound  measured.result
1                O=C(O)/C=C(/CC(=O)O)C(=O)O          62.3 µM
2  CCCCCc1cc2c(cc1O)CC[C@@H]1[C@@H]2CC[C@]2(C)[C@@H](O)CC[C@@H]12          40.3 µM

**Q:** Test system SNB-19 CNS; read-out TGI; what value for Cc1ccc2c(c1)C(=O)c1c-2n(CCCN)c(=O)c2cc([N+](=O)[O-])ccc12 ?
**A:** 0.706 µM

**Q:** Test system SNB-19 CNS; read-out TGI; what value for COC(=O)c1sc(=S)sc1SCc1ccccc1CSc1sc(=S)sc1C(=O)OC ?
**A:** > 100 µM

**Q:** Test system SNB-19 CNS; read-out TGI; what value for Nc1nc2c(ncn2C2OC(CO)C(O)C2N)c(=O)[nH]1 (stereo unspecified) ?
**A:** > 100 µM
